Measurement Target: T1, Rhesus SLC34A2 (Rhesus, UniProt F7HDA3 1-690)
T1 construct: whole, on cells
T1 sequence: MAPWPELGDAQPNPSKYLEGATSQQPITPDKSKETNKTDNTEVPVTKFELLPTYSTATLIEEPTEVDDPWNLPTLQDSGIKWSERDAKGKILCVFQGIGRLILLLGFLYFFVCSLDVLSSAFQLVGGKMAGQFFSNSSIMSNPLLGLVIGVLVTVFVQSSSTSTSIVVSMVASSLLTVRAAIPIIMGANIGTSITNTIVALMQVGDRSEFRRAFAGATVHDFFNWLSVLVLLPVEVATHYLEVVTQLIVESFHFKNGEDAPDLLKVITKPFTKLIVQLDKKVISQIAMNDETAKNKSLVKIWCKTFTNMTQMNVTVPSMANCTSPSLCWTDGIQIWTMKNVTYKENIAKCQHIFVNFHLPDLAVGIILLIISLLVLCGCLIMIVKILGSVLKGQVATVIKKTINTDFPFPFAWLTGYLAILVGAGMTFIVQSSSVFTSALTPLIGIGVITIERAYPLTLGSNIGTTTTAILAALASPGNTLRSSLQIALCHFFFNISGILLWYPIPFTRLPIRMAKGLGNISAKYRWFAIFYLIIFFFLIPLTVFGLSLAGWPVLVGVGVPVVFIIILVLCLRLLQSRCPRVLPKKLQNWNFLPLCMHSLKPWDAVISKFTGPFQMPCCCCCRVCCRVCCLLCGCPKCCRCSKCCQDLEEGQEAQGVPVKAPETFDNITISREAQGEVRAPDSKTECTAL
Assay: FACS, HEK293/Rhesus SLC34A2 cells
Please go through the items and note down their EC50.
Answers are plain numbers, in nM.

binder="xi91C9F1 hIgG1 (antibody, V domains shown, chimeric, hIgG1) VH: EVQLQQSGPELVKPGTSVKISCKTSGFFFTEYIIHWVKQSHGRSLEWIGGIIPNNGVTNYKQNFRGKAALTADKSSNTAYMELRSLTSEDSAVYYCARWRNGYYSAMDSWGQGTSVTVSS VL: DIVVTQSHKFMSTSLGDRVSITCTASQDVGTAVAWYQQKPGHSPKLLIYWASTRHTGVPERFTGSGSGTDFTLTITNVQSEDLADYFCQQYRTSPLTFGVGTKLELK" readout_name=EC50 readout_value=1.2
binder="xi63A11D5B4 hIgG1 (antibody, V domains shown, chimeric, hIgG1) VH: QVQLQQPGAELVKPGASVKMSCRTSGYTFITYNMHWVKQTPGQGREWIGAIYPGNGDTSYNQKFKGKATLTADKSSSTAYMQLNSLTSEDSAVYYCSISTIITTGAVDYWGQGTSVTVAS VL: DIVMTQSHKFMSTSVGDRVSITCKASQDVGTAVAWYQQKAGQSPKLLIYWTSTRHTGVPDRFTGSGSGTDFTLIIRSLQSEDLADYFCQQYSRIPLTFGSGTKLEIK" readout_name=EC50 readout_value=2.3
binder="62G10E4G8 VH_P3/VL hIgG1 (antibody, V domains shown, PTM-derisked chimeric, hIgG1; that P3 is the NA version follows from the humanized .p3 chains; also called 62G10E4G8.p3 hIgG1) VH: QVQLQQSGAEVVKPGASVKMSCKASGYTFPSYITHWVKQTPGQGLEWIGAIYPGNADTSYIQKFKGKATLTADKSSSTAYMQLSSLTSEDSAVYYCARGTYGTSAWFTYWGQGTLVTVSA VL: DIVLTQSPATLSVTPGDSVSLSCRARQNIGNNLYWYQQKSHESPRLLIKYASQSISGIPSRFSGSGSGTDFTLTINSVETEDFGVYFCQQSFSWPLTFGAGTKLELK" readout_name=EC50 readout_value=5
binder="91C9F1.p1.z4 hIgG1 (antibody, V domains shown, humanized hIgG1) VH: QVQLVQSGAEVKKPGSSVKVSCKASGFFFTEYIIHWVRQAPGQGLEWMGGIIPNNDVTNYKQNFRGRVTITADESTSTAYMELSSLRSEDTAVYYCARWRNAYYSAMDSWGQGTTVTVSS VL: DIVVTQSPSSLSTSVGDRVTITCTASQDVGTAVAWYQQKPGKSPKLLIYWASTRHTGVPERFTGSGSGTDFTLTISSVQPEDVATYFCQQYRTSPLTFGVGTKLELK" readout_name=EC50 readout_value=3.2

Could you now consider this next binder?
Enquiry: Read the entry 62G10E4G8.p3.z15 hIgG1 (antibody, V domains shown, humanized hIgG1) VH: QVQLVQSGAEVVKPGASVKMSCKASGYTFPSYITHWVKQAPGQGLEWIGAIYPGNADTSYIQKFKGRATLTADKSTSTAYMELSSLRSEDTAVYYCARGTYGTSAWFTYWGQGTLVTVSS VL: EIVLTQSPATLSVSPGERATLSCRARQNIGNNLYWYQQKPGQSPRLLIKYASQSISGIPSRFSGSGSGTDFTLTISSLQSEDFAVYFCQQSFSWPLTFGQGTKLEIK and write its reported EC50.
Return: 1.4
